Tested on: A2780
assay.details: Cytotoxicity against human A2780 cells after 48 hrs by MTT assay
Format: functional, cell-based
condition.description: A2780, 48 h
pIC50: −log10 of the molar value.
experimental.readout: pIC50

Below, 3 compounds whose answers are already recorded.
* O=C(Nc1n[nH]c2ncc(Br)cc12)c1ccccc1C(F)(F)F | < 3.70
* CO[C@H](C(=O)N1Cc2[nH]nc(NC(=O)c3cc4c(c(OCc5ccccc5)c3)OCO4)c2C1)c1ccccc1 | < 3.70
* CO[C@H](C(=O)N1Cc2[nH]nc(NC(=O)c3ccco3)c2C1)c1ccccc1 | < 3.70

Look up pIC50: "COc1ccc(C(=O)Nc2n[nH]c3ncc(Br)cc23)cc1"
< 3.70

Look up pIC50: "Cc1ccc(C(=O)Nc2n[nH]c3c2CN(C(=O)[C@@H](O)c2ccccc2)C3)cc1"
4.09

Look up pIC50: "Cc1cccc(C(=O)Nc2n[nH]c3ncc(Br)cc23)c1"
4.30

Look up pIC50: "CC(=O)c1ncccc1N1Cc2[nH]nc(NC(=O)c3ccc4c(c3)OCO4)c2C1"
< 3.70

Look up pIC50: "O=C(Nc1n[nH]c2ncc(Br)cc12)c1ccco1"
4.38

Look up pIC50: "Cc1ccc(C(=O)N2Cc3[nH]nc(NC(=O)c4ccco4)c3C2)cc1"
< 3.70

Look up pIC50: "CC(=O)c1ncccc1N1Cc2[nH]nc(NC(=O)c3ccccc3)c2C1"
< 3.70
